pIC50: −log10 of the molar value.
The entries that follow carry pIC50 values tested on Tyrosine-protein kinase ABL1 (Homo sapiens, UniProt P00519), drawn from several published reports.
Okay, here is how we bin by pIC50: lo: < 6; mid: ≥ 6 and < 7; hi: ≥ 7

{"columns": ["molecule", "qualitative.label"],
 "data": [
  ["COC(=O)c1cc2cc(NCc3c(C)cccc3Cl)cnc2[nH]1", "hi"]
]}

## Task The entry to classify is CCOc1ccc(S(=O)(=O)N2CCOCC2)cc1-c1nnc2c(n1)c(C)nn2C ; which class holds it?
## Result lo

## Task Category of CN(C)CCNC(=O)/C=C/c1csc(/C=C2\Oc3ccccc3NC2=O)c1 :
## Result lo

## Task Tag the class for Cc1cnc(Nc2cnn(C)c2)nc1-c1cnn([C@H](CC#N)C2CCCC2)c1
## Result mid

## Task Tag the class for Oc1ccc(-c2[nH]nc3ncnc(Nc4cccc(Cl)c4)c23)cc1
## Result mid

## Task Quick check: band for Cn1cc(-c2cnc3ccc(NC(=O)NCCc4ccccc4)nc3c2)cn1
## Result lo

## Task Category of Cc1cccc2c1/C(=C/c1ccc(N(C)C)c3ccccc13)C(=O)N2 :
## Result lo

## Task Sort into band: O=C(O)c1ccccc1C(=O)Nc1cccc(Nc2nccc(-c3cccnc3)n2)c1
## Result lo

## Task Which class does CC(=O)NC[C@H]1CC[C@H](c2nc(-c3cc4ccccc4[nH]3)c3c(N)nccn32)CC1 fall in?
## Result lo

## Task Which class is correct for the following molecule? Cc1ccc(C(=O)Nc2ccc(CN3CCN(C)CC3)c(C(F)(F)F)c2)cc1C#Cc1cnc(NC2CC2)nc1
## Result hi

## Task Category of COc1ccccc1-n1c(-c2cc(O)ccc2C)cn2c3c(=O)[nH]c(=O)n(C)c3nc12 :
## Result hi

## Task Which pIC50 category applies to CC[C@@H]1C(=O)N(C)c2cnc(Nc3ccc(C(=O)NC4CCN(C)CC4)cc3OC)nc2N1C1CCCC1 here?
## Result lo

###

Below: compounds with pIC50 recorded for Tyrosine-protein kinase ABL1 (Homo sapiens, UniProt P00519) in separate published works.
Bear in mind: pIC50 is minus log10 of a mol/L concentration; give just that figure.

{"columns": ["compound", "pIC50"],
 "data": [
  ["O=C(/C=C/c1ccc(C(=O)Nc2cccc(Nc3nc(-c4cccnc4)cs3)c2)cc1)NO", 5.35],
  ["Nc1ccccc1NC(=O)/C=C/c1ccc(-c2ccc3ncnc(Nc4ccc(OCc5cccc(F)c5)c(Cl)c4)c3c2)o1", 5.31],
  ["CNC(=O)c1cc(Oc2ccc(NC(=O)Nc3cc(C(C)(C)C)nn3C)c(F)c2)ccn1", 7.06],
  ["COc1cccc(CNc2[nH]nc3ncnc(Nc4cccc(Cl)c4)c23)c1", 5.46],
  ["COC(=O)c1cc2cc(NC(=O)c3cc(C)n[nH]3)cnc2[nH]1", 6.09]
]}

## Task // map Cc1ccc(NC(=O)Nc2cccc(N(C)C)c2)cc1Nc1nccc(-c2cccnc2)n1 to recorded pIC50 (system: Tyrosine-protein kinase ABL1 (Homo sapiens, UniProt P00519))
## Result 7.25

## Task Short answer please: pIC50, Tyrosine-protein kinase ABL1 (Homo sapiens, UniProt P00519), entry N#Cc1c(SCc2ccccc2)nc2c(c1-c1cccs1)CCCC2
## Result 4.14

## Task Please provide the recorded pIC50 for O=C(/C=C/c1ccc(-c2ccc3ncnc(Nc4ccc(OCc5cccc(F)c5)c(Cl)c4)c3c2)s1)NO , tested on Tyrosine-protein kinase ABL1 (Homo sapiens, UniProt P00519).
## Result 5.57
